# ASSAYED_TARGET: 5HT2C receptors (Homo sapiens, UniProt P28335)
# TEST_DESCRIPTION: Human 5-HT2C functional high throughput screening assay in CHO-K1 cells (calcium flux)
# Format: cell-based
# Set-up: expressed in transfected cells; host or cells: CHO-K1 cells
# MEASUREMENT_SETUP: CHO-K1; 5-HT2C; maximum functional response as percentage relative to the effect of serotonin; read-out: Emax
MEASURED_ATTRIBUTE: Emax

- COMPOUND: "O=C1NC[C@@H]2CN(Cc3ccccc3)C[C@H]2c2ccc(OCCc3cccc(F)c3)cc21 (relative stereo) [Example 119]"
  MEASURED_ATTRIBUTE: "Emax"
  MEASUREMENT: "> 120%"
- COMPOUND: "CN1C[C@H]2CNC(=O)c3cc(-c4ccc5c(c4)C(=O)CC5)ccc3[C@@H]2C1 (relative stereo) [Example 251]"
  MEASURED_ATTRIBUTE: "Emax"
  MEASUREMENT: "> 120%"
- COMPOUND: "CC(=O)c1cccc(-c2ccc3c(c2)C(=O)NC[C@@H]2CN(C)C[C@@H]32)c1 (relative stereo) [Example 237]"
  MEASURED_ATTRIBUTE: "Emax"
  MEASUREMENT: "> 120%"

Please find the next compound below.
query: Which value of Emax has been reported for CN1C[C@H]2CNC(=O)c3cc(-c4cccc(C=O)c4)ccc3[C@@H]2C1 (relative stereo) [Example 198] in the records?
result: > 120%

* * *

# ASSAYED_TARGET: UniProtKB P28335
# Sequence (P28335 33-458): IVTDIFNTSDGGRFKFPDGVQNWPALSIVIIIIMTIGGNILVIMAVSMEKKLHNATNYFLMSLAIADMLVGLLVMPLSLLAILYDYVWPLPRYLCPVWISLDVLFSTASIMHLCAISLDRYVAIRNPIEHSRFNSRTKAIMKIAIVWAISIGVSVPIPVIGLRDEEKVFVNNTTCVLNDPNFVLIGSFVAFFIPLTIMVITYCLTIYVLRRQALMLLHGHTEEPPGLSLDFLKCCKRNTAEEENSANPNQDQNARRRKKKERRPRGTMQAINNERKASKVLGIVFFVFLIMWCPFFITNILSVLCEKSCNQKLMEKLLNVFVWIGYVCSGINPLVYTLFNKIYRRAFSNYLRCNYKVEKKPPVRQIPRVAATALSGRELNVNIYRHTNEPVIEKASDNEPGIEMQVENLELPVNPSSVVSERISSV
# TEST_DESCRIPTION: Human 5-HT2C functional high throughput screening assay in CHO-K1 cells (calcium flux)
# Assay type: cell-based
# Design: expressed in transfected cells; host or cells: CHO-K1 cells
# MEASUREMENT_SETUP: 5-HT2C agonist activity; CHO-K1 cells; calcium flux; read-out: EC50
Checkbox rule: EC50 lower than 40 nM = Yes; EC50 not lower than 40 nM = No.

query: Field: below-cutoff. Rule: recorded EC50 strictly less than 40 nM. Subject: CC(O)c1cccc(-c2cccc3c2OCC[C@H]2CNC[C@H]32)c1 (relative stereo)
result: Yes

query: Same read-out for CN(C)C(=O)c1cccc(-c2ccc3c(c2)C(=O)NC[C@@H]2CNC[C@@H]32)c1 (relative stereo) ?
result: No

query: Same read-out for CN1C[C@H]2CNC(=O)c3cc(CCc4ccccc4)ccc3[C@@H]2C1 (relative stereo) ?
result: Yes

query: Same read-out for C[C@@H](Cc1ccccc1)Oc1ccc2c(c1)C(=O)NC[C@@H]1CN(Cc3ccccc3)C[C@@H]21 (mixture of isomers) ?
result: No

query: Same read-out for CC(=O)c1ccc(-c2ccc3c(c2)C(=O)NC[C@@H]2CNC[C@@H]32)s1 (relative stereo) ?
result: Yes

query: Same read-out for "CN1C[C@@H]2CNC(=O)c3cc(OCc4c(F)cccc4F)ccc3[C@H]2C1" ?
result: Yes

query: Same read-out for C[C@H](O)c1cccc(-c2ccc3c(c2)C(=O)NC[C@H]2CN(C)C[C@H]32)c1 [Example 293] ?
result: Yes
